- Tested on: CP305
- assay procedure: qHTS profiling for inhibitors of Plasmodium falciparum proliferation (AID 504749); note: nearly all actives have a fitted effect of over 60% in size
- test conditions: P. falciparum in erythrocytes, SYBR Green DNA, 72 h; series mostly up to 28.7 µM
Records with an inconclusive call do not appear. The source made the active and inactive calls. Calls come from the whole dose curve; as a rule, active = well fitted inhibition curve with a large enough effect; inconclusive = small, poorly fitted or top-dose-only effect; inactive = flat fitted curve, though single readings scatter.
Reply using exactly one outcome from Yes for active, No for inactive

For orientation, consider the following solved cases.
item smiles: CN(C)C/C=C(/c1ccc(Br)cc1)c1cccnc1
system: CP305
assigned category: No
//
item smiles: NC(=O)N1c2ccccc2C=Cc2ccccc21
system: CP305
assigned category: No
//
item smiles: OCCN1CCN(CCCN2c3ccccc3C=Cc3ccccc32)CC1
system: CP305
assigned category: Yes
//
item smiles: CN(C)C(=O)Oc1ccc[n+](C)c1
system: CP305
assigned category: No
//
item smiles: O=c1[nH]c(=O)n([C@H]2C[C@H](O)[C@@H](CO)O2)cc1Br
system: CP305
assigned category: No
//
item smiles: CN(C)CCCN1c2ccccc2Sc2ccc(C(F)(F)F)cc21
system: CP305
assigned category: No
//
item smiles: CCCOc1ccccc1-c1nc2n[nH]nc2c(=O)[nH]1
system: CP305
assigned category: No
//
item smiles: C[N+](C)(C)CCOC(N)=O
system: CP305
assigned category: No
//
item smiles: Cc1nc2c([nH]1)c(=O)n(C)c(=O)n2Cc1ccco1
system: CP305
assigned category: No
//
item smiles: COc1ccc(CN(CCN(C)C)c2ccccn2)cc1
system: CP305
assigned category: No

Enquiry: Hey, what did the test say about "CN(C(=O)CCCOc1ccc2[nH]c(=O)ccc2c1)C1CCCCC1" ?
Return: No

Enquiry: Please state the recorded outcome for this compound: "CN=C(NC#N)NCCSCc1nc[nH]c1C"
Return: No

---

- Tested on: CP215
- assay procedure: qHTS profiling for inhibitors of Plasmodium falciparum proliferation (AID 504749); note: nearly all actives have a fitted effect of over 60% in size; note: potency is the fitted concentration of half-maximal effect
- test conditions: P. falciparum in erythrocytes, SYBR Green DNA, 72 h; series mostly up to 28.7 µM
Records with an inconclusive call do not appear. Active and inactive are the calls of the source. Calls come from the whole dose curve; as a rule, active = well fitted inhibition curve with a large enough effect; inconclusive = small, poorly fitted or top-dose-only effect; inactive = flat fitted curve, though single readings scatter.
readout kind: Potency

molecule: CN(C)C(=O)Oc1ccc[n+](C)c1
Potency: inactive

molecule: CC(N=C(NC#N)Nc1ccncc1)C(C)(C)C (stereo not given)
Potency: inactive

molecule: COC(=O)[C@@H](N)Cc1ccc(O)c(O)c1
Potency: inactive

molecule: CCCCNc1c(C(=O)OCC)c(C)nc2c1cnn2CC
Potency: inactive

molecule: Cc1scc2c1N(C(=O)CN1CCN(C)CC1)c1ccccc1NC2=O
Potency: inactive

Enquiry: Look up Potency: "NC/C=C/C(=O)O"
Return: inactive

Enquiry: Data request, read-out Potency, for "Nc1nc(N)c2nc(-c3ccccc3)c(N)nc2n1"
Return: inactive

Enquiry: What Potency value was documented for this molecule, "CN1CCN(CC(=O)N2c3ccccc3C(=O)Nc3cccnc32)CC1" ?
Return: inactive

Enquiry: Fill blank: measured Potency of the molecule "Cc1nc2c([nH]1)c(=O)n(C)c(=O)n2Cc1ccco1" is ____.
Return: inactive

Enquiry: Form field: reported Potency of "OCCN1CCN(CCCN2c3ccccc3C=Cc3ccccc32)CC1"
Return: 8.49 µM (active)

Enquiry: Give its Potency value. Item: "COc1ccc(CN(CCN(C)C)c2ccccn2)cc1"
Return: inactive

Enquiry: Consider the molecule OC(CCN1CCCCC1)(c1ccccc1)C1CCCCC1 (stereo not given) and give its measured Potency.
Return: inactive

Enquiry: Item under review: "Cc1cc(C)c(/C=C2\C(=O)Nc3ccccc32)[nH]1" . Reported Potency?
Return: inactive

Enquiry: Find the recorded Potency belonging to "c1cnc(N2CCN(Cc3ccc4c(c3)OCO4)CC2)nc1" and report it.
Return: inactive

Enquiry: Would you mind telling me what Potency value was observed for "COc1cc2c(cc1OC)-c1cc(=Nc3c(C)cc(C)cc3C)n(C)c(=O)n1CC2" ?
Return: 5.36 µM (active)
